Every entry's value here was drawn from patent EP4663661A1.

Target: murine CDH6 protein (mCDH6 ECD-his) (mouse) (UniProt P97326)
Sequence (P97326 19-615 limits assumed, form in doubt): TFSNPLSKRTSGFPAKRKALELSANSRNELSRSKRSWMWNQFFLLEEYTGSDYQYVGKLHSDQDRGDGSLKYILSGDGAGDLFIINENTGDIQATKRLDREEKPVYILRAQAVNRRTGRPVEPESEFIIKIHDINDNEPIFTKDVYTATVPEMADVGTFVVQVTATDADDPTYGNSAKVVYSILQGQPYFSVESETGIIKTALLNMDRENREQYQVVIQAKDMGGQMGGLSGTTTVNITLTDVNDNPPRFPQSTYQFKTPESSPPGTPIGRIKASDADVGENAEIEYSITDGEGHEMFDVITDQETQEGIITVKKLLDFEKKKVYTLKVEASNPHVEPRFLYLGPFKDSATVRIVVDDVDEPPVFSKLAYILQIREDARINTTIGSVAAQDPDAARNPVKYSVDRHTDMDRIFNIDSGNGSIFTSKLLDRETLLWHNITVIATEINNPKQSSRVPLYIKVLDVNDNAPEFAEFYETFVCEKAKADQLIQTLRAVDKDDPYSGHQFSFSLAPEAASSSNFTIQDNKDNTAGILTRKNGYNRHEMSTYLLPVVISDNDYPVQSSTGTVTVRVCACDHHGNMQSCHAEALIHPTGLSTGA
Assay: ELISA, antigen coated
Measured Max OD450 by item
The answer is to be given in OD450; state only the numeric part.

CHI-CDH6-6 (antibody, human IgG1, kappa, V domains shown) VH: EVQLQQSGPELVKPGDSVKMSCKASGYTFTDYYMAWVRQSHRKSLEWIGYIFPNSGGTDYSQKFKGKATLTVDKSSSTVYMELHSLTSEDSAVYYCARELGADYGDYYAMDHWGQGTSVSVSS VL: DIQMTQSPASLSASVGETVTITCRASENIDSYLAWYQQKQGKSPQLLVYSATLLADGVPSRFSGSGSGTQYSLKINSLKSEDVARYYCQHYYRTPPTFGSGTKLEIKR	1.6

Given CHI-CDH6-8 (antibody, human IgG1, kappa, V domains shown) VH: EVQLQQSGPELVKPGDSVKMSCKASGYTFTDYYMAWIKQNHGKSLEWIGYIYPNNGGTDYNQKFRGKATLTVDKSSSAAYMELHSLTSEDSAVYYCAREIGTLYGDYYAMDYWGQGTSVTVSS VL: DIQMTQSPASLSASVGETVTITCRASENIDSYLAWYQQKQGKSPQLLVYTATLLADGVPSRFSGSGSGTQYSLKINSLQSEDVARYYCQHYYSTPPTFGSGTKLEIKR , state its recorded Max OD450. 1.82

Given NOV0712 (antibody, human IgG1, kappa, V domains shown) VH: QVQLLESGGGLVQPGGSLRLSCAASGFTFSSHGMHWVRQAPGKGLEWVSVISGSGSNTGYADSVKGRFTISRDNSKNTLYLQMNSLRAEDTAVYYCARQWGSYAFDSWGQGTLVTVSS VL: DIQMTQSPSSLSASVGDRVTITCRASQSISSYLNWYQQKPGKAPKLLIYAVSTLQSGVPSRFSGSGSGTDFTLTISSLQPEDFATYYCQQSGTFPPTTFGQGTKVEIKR , state its recorded Max OD450. 2.42
